All values here come from patent US20070088033A1.

- systemUnderTest: human p38 kinase alpha (Homo sapiens)
- Construct: The coding region of the human p38 cDNA was obtained by PCR-amplification from RNA isolated from the human monocyte cell line THP.1; GST (N); made in house; host or cells: E. coli DH10B
- assayOverview: p38 kinase in vitro assay
- Type: biochemical
- conditions: Table I; average of n trials, n=1 if not reported; read-out: p38 Alpha IC50
- Experimental: The ability of compounds to inhibit human p38 kinase alpha was evaluated using two in vitro assay methods. […] Following incubation, 20 μl of reaction mixture was transferred to a high capacity streptavidin coated filter plate (SAM-streptavidin-matrix, Promega) prewetted with phosphate buffered saline, The transferred reaction mix was allowed to contact the streptavidin membrane of the Promega plate for 1-2 minutes. […] The plates were sealed and counted. […]
propertyMeasured: IC50 (nM)
The reply should be a number in nM, with the unit left off.

Recorded results for 5 compounds are shown here.
# smilesText, unitSymbol, IC50
rows = [
    ("Cc1cc(OCc2ccc(F)cc2)c(Br)c(=O)n1-c1c(Cl)cccc1Cl", "nM", 403),
    ("COC(=O)c1ccc(Cn2ccc(OCc3ccccc3)c(Br)c2=O)cc1", "nM", 507),
    ("Cc1cc(OCc2ccc(F)cc2F)c(Br)c(=O)n1-c1c(Cl)cccc1Cl", "nM", 179),
    ("O=c1c(Br)c(OCc2ccccc2)ccn1Cc1ccc(F)cc1", "nM", 170),
    ("CSc1ccc(Cn2ccc(OCc3ccccc3)c(Br)c2=O)cc1", "nM", 450),
]

// Input: `Cc1cccc(C)c1-n1c(C)cc(OCc2ccc(F)cc2)c(Br)c1=O` . Output its IC50 only.
455

// Input: `COc1cccc(Cn2ccc(OCc3ccc(F)cc3F)c(Br)c2=O)c1` . Output its IC50 only.
498

// Input: `COc1cccc(C)c1-n1c(C)cc(OCc2ccc(F)cc2F)c(Br)c1=O` . Output its IC50 only.
294

// Input: `O=c1c(Br)c(OCc2ccc(F)cc2)ccn1Cc1cccc(F)c1` . Output its IC50 only.
632

// Input: `Cc1cccc(C)c1-n1c(C)cc(OCc2ccc(F)cc2F)c(Br)c1=O` . Output its IC50 only.
64.6

// Input: `Cc1cc(OCc2ccc(F)cc2F)c(Br)c(=O)n1Cc1ccncc1` . Output its IC50 only.
210

---

- systemUnderTest: human p38 kinase alpha (Homo sapiens, UniProt Q16539)
- Construct: The coding region of the human p38 cDNA was obtained by PCR-amplification from RNA isolated from the human monocyte cell line THP.1; GST (N); made in house; host or cells: E. coli DH10B
- Sequence (Q16539 whole entry): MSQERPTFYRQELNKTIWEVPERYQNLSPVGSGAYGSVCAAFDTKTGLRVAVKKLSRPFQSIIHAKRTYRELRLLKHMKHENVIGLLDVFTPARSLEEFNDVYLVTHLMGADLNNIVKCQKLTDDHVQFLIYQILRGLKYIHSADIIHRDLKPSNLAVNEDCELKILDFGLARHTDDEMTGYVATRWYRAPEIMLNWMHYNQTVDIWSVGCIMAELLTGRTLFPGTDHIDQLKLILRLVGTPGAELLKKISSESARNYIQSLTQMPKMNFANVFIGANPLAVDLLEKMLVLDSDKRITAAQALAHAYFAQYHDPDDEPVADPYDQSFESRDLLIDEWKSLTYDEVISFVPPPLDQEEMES
- assayOverview: p38 kinase in vitro assay
- Assay type: biochemical
- conditions: Table III; n = number of times assayed, n=1 if not reported; read-out: p38 Alpha IC50
- Procedure: The ability of compounds to inhibit human p38 kinase alpha was evaluated using two in vitro assay methods. […] Following incubation, 20 μl of reaction mixture was transferred to a high capacity streptavidin coated filter plate (SAM-streptavidin-matrix, Promega) prewetted with phosphate buffered saline, The transferred reaction mix was allowed to contact the streptavidin membrane of the Promega plate for 1-2 minutes. […] The plates were sealed and counted. […]
Measured pIC50 values are reported for all entries that follow.
// returns pIC50 (minus log10 of molar concentration), number only

Recorded results for 4 molecules are shown here.
# molecule, systemUnderTest, propertyMeasured, experimentalValue
measured = [
    ("Cc1cc(OCc2c(F)cc(F)cc2F)c(Br)c(=O)n1Cc1ccncc1 [UUUU]", "human p38 kinase alpha (Homo sapiens, UniProt Q16539)", "pIC50", 6.72),
    ("Cc1cccc(C)c1-n1c(C)cc(OCc2c(F)cc(F)cc2F)c(Br)c1=O [PPPP]", "human p38 kinase alpha (Homo sapiens, UniProt Q16539)", "pIC50", 7.01),
    ("Cc1cccc(C)c1-n1ccc(OCc2ccc(F)cc2)c(Br)c1=O [BBBBB]", "human p38 kinase alpha (Homo sapiens, UniProt Q16539)", "pIC50", 6.34),
    ("O=c1c(Br)c(OCc2ccc(F)cc2F)ccn1Cc1ccncc1 [SSSS]", "human p38 kinase alpha (Homo sapiens, UniProt Q16539)", "pIC50", 6.85),
]

Please examine the following record next.
// Input: Cc1cc(OCc2c(F)cccc2F)c(Br)c(=O)n1Cc1ccncc1 [EEEEE] . Output its pIC50 only.
6.16
